Data provenance is ChEMBL document CHEMBL1140405.

# measured.target: Melanin-concentrating hormone receptor 1 (Homo sapiens, UniProt Q99705)
# Sequence (Q99705 whole entry): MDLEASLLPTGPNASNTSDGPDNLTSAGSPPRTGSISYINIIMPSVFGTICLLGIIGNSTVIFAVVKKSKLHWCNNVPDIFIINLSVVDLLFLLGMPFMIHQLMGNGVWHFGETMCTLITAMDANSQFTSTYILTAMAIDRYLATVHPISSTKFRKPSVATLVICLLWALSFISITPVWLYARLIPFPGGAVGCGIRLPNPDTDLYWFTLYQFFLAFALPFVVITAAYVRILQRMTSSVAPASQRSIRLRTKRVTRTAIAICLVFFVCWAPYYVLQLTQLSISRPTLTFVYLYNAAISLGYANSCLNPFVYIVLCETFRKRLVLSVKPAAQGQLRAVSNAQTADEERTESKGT
# protocol.description: Displacement of 150p M [125I]MCH from human MCH1R expressed in CHO-K1 cells at 10 uM
# Assay type: cell-based
readout.label: inhibition (%)

These solved cases illustrate the format of a correct answer.
chemical.string | unit.of.measure | inhibition
CCOc1ccc(/C=C/C(=O)Nc2ccc3nc(N4CCN(C)CC4)cc(C)c3c2)cc1OC | % | 52
COc1ccc(OC)c(/C=C/C(=O)Nc2ccc3nc(N4CCN(C)CC4)cc(C)c3c2)c1 | % | 47
CCN1CCN(c2cc(C)c3cc(NC(=O)c4ccc(OC)cc4)ccc3n2)CC1 | % | 40
CCN1CCN(c2cc(C)c3cc(NC(=O)/C=C/c4ccccc4OC(C)C)ccc3n2)CC1 | % | 41

P = Cc1cc(N2CCN(c3ncccn3)CC2)nc2ccc(NC(=O)COc3ccc(Cl)cc3Cl)cc12
Q = CCN1CCN(c2cc(C)c3cc(NC(=O)c4cc(=O)c5ccccc5o4)ccc3n2)CC1
In: Look at P and Q . Which one has the lower recorded inhibition number? Your choice should be expressed through its label.
Out: P
(P: 41%, Q: 71%)

###

# measured.target: Adrenergic receptor alpha-2 (Homo sapiens, UniProt P08913+P18825+P18089)
# protocol.description: Inhibitory concentration against alpha-2 adrenergic receptor
readout.label: pIC50
Value format note: pIC50 is -log10 of concentration (mol/L); just state the number.

chemical.string | readout.label | measured.number
Cc1cc(N(C)CCN(C)C)nc2ccc(NC(=O)/C=C/c3ccc(OC(F)(F)F)cc3)cc12 | pIC50 | 5.89

In: State, in one line, measured pIC50 of Cc1cc(OCCN(C)C)nc2ccc(NC(=O)COc3ccc(Cl)cc3Cl)cc12
Out: 6.60

###

# protocol.description: Solubility was determined by addition of 10 mM DMSO solution of test compound to PBS (pH 7) until opalescence
# condition.summary: PBS
readout.label: solubility kinetic (µM)

Consider the following illustrative entries.
compound | solubility kinetic, µM
Cc1cc(N2CCN(C)CC2)nc2ccc(NC(=O)COc3ccc(OC(F)(F)F)cc3)cc12 | 120
Cc1cc(N2CCC(N)CC2)nc2ccc(NC(=O)COc3ccc(OC(F)(F)F)cc3)cc12 | 150
Cc1cc(N2CCOCC2)nc2ccc(NC(=O)COc3ccc(OC(F)(F)F)cc3)cc12 | 25

A = Cc1cc(N2CCOCC2)nc2ccc(NC(=O)COc3ccc(Cl)cc3Cl)cc12
B = Cc1cc(N(C)CCN(C)C)nc2ccc(NC(=O)COc3ccc(Cl)cc3Cl)cc12
C = Cc1cc(N2CC3CC2CN3)nc2ccc(NC(=O)COc3ccc(OC(F)(F)F)cc3)cc12 (configuration not stated)
D = Cc1cc(N(C)CCO)nc2ccc(NC(=O)COc3ccc(Cl)cc3Cl)cc12
In: List the 4 entries from lowest solubility kinetic to highest solubility kinetic value. Reply with the labels, ordered as the question asks.
Out: D, A, B, C

###

# measured.target: D(1A) dopamine receptor (Homo sapiens, UniProt P21728)
# Sequence (P21728 whole entry): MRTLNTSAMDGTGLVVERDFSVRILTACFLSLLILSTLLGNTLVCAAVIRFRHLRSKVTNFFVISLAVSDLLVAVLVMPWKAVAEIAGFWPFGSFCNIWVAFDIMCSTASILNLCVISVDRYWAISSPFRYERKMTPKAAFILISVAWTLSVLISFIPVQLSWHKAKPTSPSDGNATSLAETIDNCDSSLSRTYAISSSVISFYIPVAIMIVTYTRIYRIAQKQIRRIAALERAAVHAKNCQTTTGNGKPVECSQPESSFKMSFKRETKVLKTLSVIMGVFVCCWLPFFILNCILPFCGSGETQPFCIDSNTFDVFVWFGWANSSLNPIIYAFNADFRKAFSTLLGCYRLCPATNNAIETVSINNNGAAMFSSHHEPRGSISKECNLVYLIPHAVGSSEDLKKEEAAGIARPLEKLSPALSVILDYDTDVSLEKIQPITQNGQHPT
# protocol.description: Inhibitory concentration against dopamine receptor D1
readout.label: pIC50
By convention, pIC50 is the negative base-10 log of a molar concentration.

chemical.string | pIC50
Cc1cc(OCCN(C)C)nc2ccc(NC(=O)COc3ccc(Cl)cc3Cl)cc12 | 5.12

In: Consider the molecule Cc1cc(N(C)CCN(C)C)nc2ccc(NC(=O)/C=C/c3ccc(OC(F)(F)F)cc3)cc12 tested on D(1A) dopamine receptor (Homo sapiens, UniProt P21728); state its pIC50.
Out: 6.05
